All values here come from patent US12116371B2.

System: MOLM-13 (MLL-AF9) cells
Experiment: Long-term proliferation (LTP) assay, CellTiterGlo (Example 103)
Format: cell-based, human
Conditions: Homo sapiens, 168 h; MOLM-13 (MLL-AF9); Day 7; LTP assay; read-out: Day 7 IC50
pIC50: −log10 of the molar value.
parameter-measured: pIC50

compound: CN(C)C/C=C/C(=O)NC1CN(c2ccnc(NC(=O)Nc3ccc(-c4cc5c(N6CCOCC6)ncnc5[nH]4)cc3)c2)C1 [Compound 15]
parameter-measured: pIC50
measured-result: 6.39

(1) C=CC(=O)NC1CCCN(Cc2ccnc(C(=O)Nc3ccc(-c4cc5c(N6CCOCC6)ncnc5[nH]4)cc3)c2)C1 (stereo not drawn) [Compound 10]
(2) C=CC(=O)NC1CN(c2ccnc(NC(=O)Nc3ccc(-c4cc5c(N6CCOCC6)ncnc5[nH]4)cc3)c2)C1 [Compound 1]
Which one would you say has the larger pIC50 value: 1 , or 2 ? Identify your selection by its label.
1
(1: 6.55, 2: 6.35)

---

Test system: KG-1 cells
Test: Long term proliferation assay, InCell read-out
Format: cell-based
Settings: Homo sapiens, KG-1, 96 h, KG-1, Day 4, read-out: Day 4 IC50
parameter-measured: pIC50
In textbook form, pIC50 equals minus log to base ten of the concentration in mol/L.

pIC50 reading for C=CC(=O)NC1CCCN(Cc2ccnc(C(=O)Nc3ccc(-c4cc5c(N6CCOCC6)ncnc5[nH]4)cc3)c2)C1 (centres unmarked) : 6.28

---

Tested on: RS4-11 (MLL-AF4) cells
Assay: Long-term proliferation (LTP) assay, CellTiterGlo (Example 103)
Type: cell-based
Settings: Homo sapiens, 168 h; RS4-11 (MLL-AF4); Day 7; LTP assay; read-out: Day 7 IC50
pIC50: −log10 of the molar value.
parameter-measured: pIC50

Some solved entries appear below for comparison.
compound: C=CC(=O)NC1CN(c2ccnc(NC(=O)Nc3ccc(-c4cc5c(N6CCOCC6)ncnc5[nH]4)cc3)c2)C1
measured-result: 6.95
--
compound: C=CC(=O)NC1CCCN(Cc2ccnc(C(=O)Nc3ccc(-c4cc5c(N6CCOCC6)ncnc5[nH]4)cc3)c2)C1 (stereo not shown)
measured-result: 6.33

(1) C=CC(=O)NC1CN(c2ccnc(NC(=O)Nc3ccc(-c4nc5c(N6CCOCC6)nccc5[nH]4)cc3)c2)C1
(2) CN(C)C/C=C/C(=O)NC1CN(c2ccnc(NC(=O)Nc3ccc(-c4cc5c(N6CCOCC6)ncnc5[nH]4)cc3)c2)C1
Which one would you say has the larger pIC50 value: 1 , or 2 ? Identify your selection by its label.
1

---

Tested on: MV4-11 cells
Assay: Long term proliferation assay, Cell Titer-Glo read-out
Assay type: cell-based, human
Conditions: Homo sapiens, MV4-11, MV4-11; T4; CellTiter-Glo; read-out: IC50
pIC50: −log10 of the molar value.
parameter-measured: pIC50

(a) C=CC(=O)NC1CCCN(Cc2ccnc(C(=O)Nc3ccc(-c4cc5c(N6CCOCC6)ncnc5[nH]4)cc3)c2)C1 (centres unmarked) [Compound 10]
(b) CN(C)C/C=C/C(=O)Nc1ccc(CC(=O)Nc2ccc(-c3cc4c(N5CCOCC5)ncnc4[nH]3)cc2)cc1 [Compound 5]
Which one would you say has the larger pIC50 value: a , or b ? Identify your selection by its label.
a
(a: 6.82, b: 6.44)
